Biological target: T1, human IL-17F (human, UniProt Q96PD4 31-163)
T1 construct: made in Hek293 cells (GenBank AF384857); also called hIL-17F; hIL17F
T1 sequence: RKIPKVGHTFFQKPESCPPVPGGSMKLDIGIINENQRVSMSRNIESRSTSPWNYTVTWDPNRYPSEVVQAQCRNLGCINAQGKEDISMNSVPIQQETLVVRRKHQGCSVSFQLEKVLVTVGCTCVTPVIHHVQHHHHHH
Assay: SPR (Biacore) off-rate

BINDER	koff [s⁻¹]
IL17MS3047 (VHH, variant of IL17MS13B03; Kabat numbering) VHH: EVQLVESGGGLVQPGGSLRLSCAASGRANSINWFGWFRQAPGKEREFVAGIRWSDAYTEYAASVKGRFTISRDNSKNTVYLQMNSLRPEDTAVYYCVLDLSTVRYWGQGTLVTVSS	0.00348
IL17MS3046 (VHH, variant of IL17MS13B03; Kabat numbering) VHH: EVQLVESGGGSVQPGDSLRLSCAASGRANSINWFGWFRQTPGKEREFVAGIRWSDAYTEYAASVKGRFTISRDNSKNTVDLQMDSLRPEDTAVYYCVLDLSTVRYWGQGTLVTVSS	0.00848
IL17MS3053 (VHH, variant of IL17MS13B03; Kabat numbering) VHH: EVQLVESGGGSVQAGDSLRLSCAASGRANTINWFGWFRQTPGKEREFVAGIRWSDAYTEYANSVKGRFTISRDNAKNTVDLQMDSLKPEDTAVYYCVLDLSTVRYWGQGTQVTVSS	0.00982
IL17MS13B03 (VHH, Class 4 Nanobody, wild type; also called WT) VHH: EVQLVESGGGSVQAGDSLRLSCAASGRANSINWFGWFRQTPGKEREFVAGIRWSDAYTEYANSVKGRFTISRDNAKNTVDLQMDSLKPEDTAVYYCVLDLSTVRYWGQGTQVTVSS	0.00792
IL17MS3043 (VHH, variant of IL17MS13B03; Kabat numbering) VHH: EVQLVESGGGSVQPGGSLRLSCAASGRANSINWFGWFRQTPGKEREFVAGIRWSDAYTEYANSVKGRFTISRDNSKNTVYLQMDSLRPEDTAVYYCVLDLSTVRYWGQGTLVTVSS	0.00811
IL17MS3051 (VHH, variant of IL17MS13B03; Kabat numbering) VHH: EVQLVESGGGSVQAGDSLRLSCAASGRAFSINWFGWFRQTPGKEREFVAGIRWSDAYTEYANSVKGRFTISRDNAKNTVDLQMDSLKPEDTAVYYCVLDLSTVRYWGQGTQVTVSS	0.00216
IL17MS3050 (VHH, variant of IL17MS13B03; Kabat numbering) VHH: EVQLVESGGGSVQPGGSLRLSCAASGRANSINWFGWFRQTPGKEREFVAGIRWSDAYTEYANSVKGRFTISRDNSKNTVDLQMDSLRPEDTAVYYCVLDLSTVRYWGQGTLVTVSS	0.00855
IL17MS3044 (VHH, variant of IL17MS13B03; Kabat numbering) VHH: EVQLVESGGGLVQPGDSLRLSCAASGRANSINWFGWFRQTPGKEREFVAGIRWSDAYTEYANSVKGRFTISRDNSKNTVDLQMDSLRPEDTAVYYCVLDLSTVRYWGQGTLVTVSS	0.00776
